// EC50 lookup, one value per entry
- study_system: RNA-binding protein pos-1 (Caenorhabditis elegans)
- Sequence (G5EF15 whole entry, the tested form may be a part): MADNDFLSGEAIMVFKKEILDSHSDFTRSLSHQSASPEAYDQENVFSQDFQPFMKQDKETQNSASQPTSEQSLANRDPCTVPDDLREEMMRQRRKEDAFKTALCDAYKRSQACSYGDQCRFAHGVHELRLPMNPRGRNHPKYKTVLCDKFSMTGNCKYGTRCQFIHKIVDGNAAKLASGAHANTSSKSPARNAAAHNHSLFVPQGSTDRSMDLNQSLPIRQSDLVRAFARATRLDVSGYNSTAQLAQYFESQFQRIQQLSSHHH
- assay_remarks: disruptors of C. elegans POS-1 RNA interaction – biochemical, fluorescence polarization, dose response (AID 1964);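 also: purified POS-1 fused to maltose binding protein made in E. coli; potency of compounds blocking POS-1 binding to fluorescent RNA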
Active and inactive are the calls of the source. Rule as the data show it: actives have a measured EC50 and inactives only a lower limit.

Example entries begin here.
compound	study_system	observed_result
CCCCC1=CC2=CC(=O)C(C)(OC(=O)CC)C(=O)C2=CO1 (stereo not given)	RNA-binding protein pos-1 (Caenorhabditis elegans)	27.8 µM (active)
CCN1/C(=C2/SC(=S)N(NC(C)=O)C2=O)Sc2ccc(OC)cc21	RNA-binding protein pos-1 (Caenorhabditis elegans)	> 300 µM (not active)
COC(=O)CCCC1=CC2=CC(=O)C(C)(OC(=O)c3ccco3)C(=O)C2=CO1 (stereo not given)	RNA-binding protein pos-1 (Caenorhabditis elegans)	274 µM (inconclusive)
COCCn1c(=N)c(S(=O)(=O)c2ccc(Br)cc2)cc2c(=O)n3ccccc3nc21	RNA-binding protein pos-1 (Caenorhabditis elegans)	> 300 µM (inconclusive)

Item Cc1cc(/C=C2\C(=O)NC(=O)N(c3ccc(Br)cc3)C2=O)c(C)n1-c1cc(C(=O)O)cc(C(=O)O)c1 has what recorded EC50? > 300 µM (not active)
